These entries and their values trace back to paper PMC6009853.

# Lookup of reported pKi keyed by entry
# assayed.target: hCA IV (Homo sapiens)
# Construct: gene CA4; recombinant, obtained in-house; membrane-associated isoform
# Sequence (P22748 19-284): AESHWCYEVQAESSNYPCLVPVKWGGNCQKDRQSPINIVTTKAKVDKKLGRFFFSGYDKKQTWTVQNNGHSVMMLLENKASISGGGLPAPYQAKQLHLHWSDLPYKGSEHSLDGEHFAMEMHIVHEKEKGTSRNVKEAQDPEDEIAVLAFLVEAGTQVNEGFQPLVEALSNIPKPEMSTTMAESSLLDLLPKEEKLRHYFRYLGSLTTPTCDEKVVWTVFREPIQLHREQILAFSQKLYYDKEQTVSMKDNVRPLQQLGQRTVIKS
# run.description: stopped-flow CO2 hydrase assay
# Type: biochemical
# experimental.setup: read-out: hCA IV
pKi: −log10 of the molar value.

Below, each entry is followed by its recorded pKi result.
COc1ccc(C2=NC(=Cc3cn(C(C)=O)c4ccccc34)C(=O)N2c2ccc(S(=O)(=O)NC(C)=O)cc2)cc1 [10h]; 5.52
O=C1N=C(Nc2ccc(S(=O)(=O)Nc3ncccn3)cc2)SC1=Cc1c[nH]c2ccccc12; < 5.00
COc1ccc(C2=NC(=Cc3cn(C(C)=O)c4ccccc34)C(=O)N2c2ccc(S(=O)(=O)Nc3ccccn3)cc2)cc1 [10j]; < 5.00

# context switch: different compound, same pKi
I have this compound here, `O=C1N=C(Nc2ccc(S(=O)(=O)Nc3nccs3)cc2)SC1=Cc1c[nH]c2ccccc12` , and I need its recorded pKi.
< 5.00

====

# assayed.target: hCA II (Homo sapiens)
# Construct: recombinant, obtained in-house
# run.description: stopped-flow CO2 hydrase assay
parameter: pKi
API: returns pKi as number; meaning -log10 of concentration in mol/L.

CC(=O)n1cc(C=C2N=C(c3ccccc3)N(c3ccc(S(=O)(=O)N=C(N)N)cc3)C2=O)c2ccccc21 [10f]; 5.42
NS(=O)(=O)c1ccc(N=Cc2c[nH]c3ccccc23)cc1 [4a]; 6.24

# context switch: different compound, same pKi
I have this compound here, COc1ccc(C2=NC(=Cc3cn(C(C)=O)c4ccccc34)C(=O)N2c2ccc(S(N)(=O)=O)cc2)cc1 [10g] , and I need its recorded pKi.
6.22

====

# assayed.target: hCA I (Homo sapiens)
# Construct: recombinant, obtained in-house; cytosolic
# run.description: stopped-flow CO2 hydrase assay
parameter: Ki (µM)
Please respond with the number in µM and leave the unit unwritten.

Below, each entry is followed by its recorded Ki result.
N=C(N)NS(=O)(=O)c1ccc(N=Cc2c[nH]c3ccccc23)cc1; 7.53
CC(=O)n1cc(C=C2N=C(c3ccccc3)N(c3ccc(S(=O)(=O)N=C(N)N)cc3)C2=O)c2ccccc21 [10f]; 5.76
CC(=O)NS(=O)(=O)c1ccc(NC2=NC(=O)C(=Cc3c[nH]c4ccccc34)S2)cc1; 7.98
COc1ccc(C2=NC(=Cc3cn(C(C)=O)c4ccccc34)C(=O)N2c2ccc(S(=O)(=O)NC(C)=O)cc2)cc1 [10h]; 5.72
COc1ccc(C2=NC(=Cc3cn(C(C)=O)c4ccccc34)C(=O)N2c2ccc(S(N)(=O)=O)cc2)cc1 [10g]; 0.0937

I have this molecule here, `NS(=O)(=O)c1ccc(N=Cc2c[nH]c3ccccc23)cc1` , and I need its recorded Ki.
0.0885

Query `CC(=O)NS(=O)(=O)c1ccc(N=Cc2c[nH]c3ccccc23)cc1` next
8.58

Query COc1ccc(C2=NC(=Cc3cn(C(C)=O)c4ccccc34)C(=O)N2c2ccc(S(=O)(=O)NC(=N)N)cc2)cc1 [10l] next
6.9

====

# assayed.target: hCA IX (Homo sapiens, UniProt Q16790)
# Construct: gene CA9; recombinant, obtained in-house; tumour-associated isoform
# run.description: stopped-flow CO2 hydrase assay
# Type: biochemical
parameter: pKi
API: returns pKi as number; meaning -log10 of concentration in mol/L.

CC(=O)NS(=O)(=O)c1ccc(NC2=NC(=O)C(=Cc3c[nH]c4ccccc34)S2)cc1; 6.11

Missing value: pKi, hCA IX (Homo sapiens, UniProt Q16790), entry `N=C(N)NS(=O)(=O)c1ccc(NC2=NC(=O)C(=Cc3c[nH]c4ccccc34)S2)cc1` . Fill in?
5.85

Query COc1ccc(C2=NC(=Cc3cn(C(C)=O)c4ccccc34)C(=O)N2c2ccc(S(=O)(=O)NC(=N)N)cc2)cc1 [10l] next
5.92

Query CC(=O)n1cc(C=C2N=C(c3ccccc3)N(c3ccc(S(=O)(=O)N=C(N)N)cc3)C2=O)c2ccccc21 [10f] next
5.79

====

# assayed.target: hCA I (Homo sapiens, UniProt P00915)
# Construct: recombinant, obtained in-house; cytosolic
# Sequence (P00915 2-261): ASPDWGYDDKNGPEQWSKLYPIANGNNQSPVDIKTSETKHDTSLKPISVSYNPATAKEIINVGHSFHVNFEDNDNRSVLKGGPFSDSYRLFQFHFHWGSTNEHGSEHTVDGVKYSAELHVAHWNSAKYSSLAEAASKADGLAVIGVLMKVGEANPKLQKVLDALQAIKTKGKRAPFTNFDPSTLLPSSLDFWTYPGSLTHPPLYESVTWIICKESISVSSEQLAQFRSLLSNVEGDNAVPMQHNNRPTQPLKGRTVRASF
# run.description: stopped-flow CO2 hydrase assay
# From the text: stopped-flow CO2 hydrase assay on hCA I
parameter: pKi
API: returns pKi as number; meaning -log10 of concentration in mol/L.

NS(=O)(=O)c1ccc(NC2=NC(=O)C(=Cc3c[nH]c4ccccc34)S2)cc1; 7.02

# context switch: different compound, same pKi
I have this compound here, `N=C(N)NS(=O)(=O)c1ccc(NC2=NC(=O)C(=Cc3c[nH]c4ccccc34)S2)cc1` , and I need its recorded pKi.
5.04

====

# assayed.target: hCA II (Homo sapiens, UniProt P00918)
# Construct: recombinant, obtained in-house
# run.description: stopped-flow CO2 hydrase assay
# Lookup of reported Ki keyed by entry
Please respond with the number in µM and leave the unit unwritten.

Below, each entry is followed by its recorded Ki result.
N=C(N)NS(=O)(=O)c1ccc(NC2=NC(=O)C(=Cc3c[nH]c4ccccc34)S2)cc1 [7f]; 7.18
N=C(N)NS(=O)(=O)c1ccc(N=Cc2c[nH]c3ccccc23)cc1 [4f]; 8.29
COc1ccc(C2=NC(=Cc3cn(C(C)=O)c4ccccc34)C(=O)N2c2ccc(S(=O)(=O)NC(C)=O)cc2)cc1 [10h]; 0.549

# context switch: different molecule, same Ki
I have this molecule here, NS(=O)(=O)c1ccc(NC2=NC(=O)C(=Cc3c[nH]c4ccccc34)S2)cc1 [7a] , and I need its recorded Ki.
0.0764

====

# assayed.target: hCA IX (Homo sapiens)
# Construct: gene CA9; recombinant, obtained in-house; tumour-associated isoform
# run.description: stopped-flow CO2 hydrase assay
# Assay type: biochemical
# Lookup of reported Ki keyed by entry
Please respond with the number in nM and leave the unit unwritten.

NS(=O)(=O)c1ccc(N=Cc2c[nH]c3ccccc23)cc1; 327
CC(=O)NS(=O)(=O)c1ccc(N2C(=O)C(=Cc3cn(C(C)=O)c4ccccc34)N=C2c2ccccc2)cc1 [10b]; 1470
COc1ccc(C2=NC(=Cc3cn(C(C)=O)c4ccccc34)C(=O)N2c2ccc(S(N)(=O)=O)cc2)cc1 [10g]; 328
CC(=O)n1cc(C=C2N=C(c3ccccc3)N(c3ccc(S(N)(=O)=O)cc3)C2=O)c2ccccc21 [10a]; 318

I have this molecule here, COc1ccc(C2=NC(=Cc3cn(C(C)=O)c4ccccc34)C(=O)N2c2ccc(S(=O)(=O)NC(C)=O)cc2)cc1 [10h] , and I need its recorded Ki.
1400

Query `NS(=O)(=O)c1ccc(NC2=NC(=O)C(=Cc3c[nH]c4ccccc34)S2)cc1` next
308

Query `N=C(N)NS(=O)(=O)c1ccc(N=Cc2c[nH]c3ccccc23)cc1` next
1310

Query `CC(=O)NS(=O)(=O)c1ccc(N=Cc2c[nH]c3ccccc23)cc1` next
1620

====

# Lookup of reported Ki keyed by entry
# assayed.target: hCA I (Homo sapiens, UniProt P00915)
# Construct: recombinant, obtained in-house; cytosolic
# run.description: stopped-flow CO2 hydrase assay

Below, each entry is followed by its recorded Ki result.
O=S(=O)(Nc1nccs1)c1ccc(N=Cc2c[nH]c3ccccc23)cc1 [4e]; > 10 µM
CC(=O)n1cc(C=C2N=C(c3ccccc3)N(c3ccc(S(=O)(=O)Nc4nccs4)cc3)C2=O)c2ccccc21 [10e]; > 10 µM

# context switch: different molecule, same Ki
I have this molecule here, CC(=O)n1cc(C=C2N=C(c3ccccc3)N(c3ccc(S(=O)(=O)Nc4ccccn4)cc3)C2=O)c2ccccc21 [10d] , and I need its recorded Ki.
> 10 µM
